# measuredOn: TRESK (K2P18.1) (Mus musculus)
# Construct: mouse TRESK (NM_207261) in HEK-293 cells
# Sequence (Q6VV64 whole entry): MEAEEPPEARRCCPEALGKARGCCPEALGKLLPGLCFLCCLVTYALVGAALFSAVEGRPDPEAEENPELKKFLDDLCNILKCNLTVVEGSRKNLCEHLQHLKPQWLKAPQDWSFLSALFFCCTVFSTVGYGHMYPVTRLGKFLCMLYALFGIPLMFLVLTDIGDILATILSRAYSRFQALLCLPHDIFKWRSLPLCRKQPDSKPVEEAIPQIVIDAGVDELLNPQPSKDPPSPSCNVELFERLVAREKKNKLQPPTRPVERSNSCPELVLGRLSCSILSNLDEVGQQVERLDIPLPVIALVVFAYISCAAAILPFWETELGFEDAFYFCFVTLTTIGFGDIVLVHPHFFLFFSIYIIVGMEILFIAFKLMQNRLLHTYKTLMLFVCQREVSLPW
# protocolNotes: whole-cell patch clamp (abstract prints IC50 […])
attributeMeasured: IC50
Number first, unit second: that is the form wanted.

IC50 of COC(=O)C1=C(C)NC(C)=C(C(=O)OC)C1c1ccccc1[N+](=O)[O-] on TRESK (K2P18.1) (Mus musculus)?
63.8 µM

Data credit: paper PMC6073232
